Field: pre-steady-state target cleavage rate. Provide a value for each of the sequences that follow.
# Tested on: MIWI (PIWIL1) piRISC loaded with piRNA #2 (30 nt);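 note: 1 nM active piRISC with 0.1 nM target library at 33 °C single turnover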
# test-name: pre-steady-state target cleavage rate (min^-1); higher = faster piRNA-guided slicing of the target
# run-conditions: guide: piRNA #2 5'p-UUAGGUAACCCAGUAGAUCCAGAGGAAUUC; auxiliary factor: 500 nM mouse GTSF1
In all, about 5,500 sequences were measured (“pre-steady-state target cleavage rate”: median about 0.1, highest 2% from about 0.64 on). The list comes from a sample in which the highest values are over-represented; it also holds close analogues and randomly drawn sequences.
Would you mind answering with just the numeric figure?

Any idea what pre-steady-state target cleavage rate was measured for CUAUUACCUCUGGAUCUACUGGGUUACCUAA ?
0.227

Any idea what pre-steady-state target cleavage rate was measured for CUAUUCCUCUGGUUCUACUGGGUUACGUAA ?
0.629

Any idea what pre-steady-state target cleavage rate was measured for CUAUUCCUCUGGAUCUACUGGGUUACCUAAA ?
0.333

Any idea what pre-steady-state target cleavage rate was measured for CUUUUCCUCUGGAUCUACUGCGUAACCUAA ?
0.174

Any idea what pre-steady-state target cleavage rate was measured for GUAUUCCUCUGGUUCUACUGGGUUACCUAA ?
0.0955

Any idea what pre-steady-state target cleavage rate was measured for CUUAAGGAGUGGAUCUACUGGGUUACCGAA ?
0.0437

Any idea what pre-steady-state target cleavage rate was measured for GAAUUCCUCUGGUCUACUGGGUUACCUAA ?
0.301

Any idea what pre-steady-state target cleavage rate was measured for CUUAACCACUGGAUCUACUGGGUUACGUAA ?
0.402

Any idea what pre-steady-state target cleavage rate was measured for CAAUUCCUCUGGAUCUACUGGGUUACGUAA ?
0.598

Any idea what pre-steady-state target cleavage rate was measured for GAAUUCCUCUGGAACUAGUGGGUUACCUAA ?
0.221

Any idea what pre-steady-state target cleavage rate was measured for GAAUUCCUCUGGUUCUACUGGGUUACCUAA ?
0.678

Any idea what pre-steady-state target cleavage rate was measured for CUUAAGGUCUGGAUGUUCUGGGUUACCUAA ?
0.05

Any idea what pre-steady-state target cleavage rate was measured for CUUUUCCUCUGGAUCUACUGGGUUACGUUA ?
0.374

----------
# Test system: MIWI (PIWIL1) piRISC loaded with piRNA #2 (30 nt);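 note: 1 nM active piRISC with 0.1 nM target library at 33 °C single turnover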
# test-name: pre-steady-state target cleavage rate (min^-1); MIWI and MILI are mouse PIWI proteins and EfPiwi is from a freshwater sponge; tags in brackets are library labels; higher = faster piRNA-guided slicing of the target;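 note: 1 nM active piRISC with 0.1 nM target library at 33 °C single turnover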
# run-conditions: guide: piRNA #2 5'p-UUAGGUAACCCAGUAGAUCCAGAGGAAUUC; auxiliary factor: 500 nM mouse GTSF1
In all, about 5,500 sequences were measured (“pre-steady-state target cleavage rate”: median about 0.1, highest 2% from about 0.64 on). Many of the other results were omitted from the sample, so the highest values are more common in it than they were.
Decision: pre-steady-state target cleavage rate compared against 0.3; not below it gives Criterion met, below it gives Criterion not met.

Please tell me: is the sequence GAAUUCCUCUGGUUCUACUGGGUAACCUAA at or over 0.3 in terms of pre-steady-state target cleavage rate?
Criterion not met

Please tell me: is the sequence CUUAACCUCUGGAUAUACUGGGUUACCUAA at or over 0.3 in terms of pre-steady-state target cleavage rate?
Criterion met

Please tell me: is the sequence GAAUUCCUCUGGAUCUACUGGGUUUCCUAA at or over 0.3 in terms of pre-steady-state target cleavage rate?
Criterion not met

Please tell me: is the sequence GAAUUCCUCUGGAACUACUGGGUUUCCUAA at or over 0.3 in terms of pre-steady-state target cleavage rate?
Criterion met

Please tell me: is the sequence CUUAACCCUGGAUCUACUGGGUUACCUAA at or over 0.3 in terms of pre-steady-state target cleavage rate?
Criterion met

Please tell me: is the sequence CUUUUCCUCUGGUUCUACUGGGUUUCCUAA at or over 0.3 in terms of pre-steady-state target cleavage rate?
Criterion met

Please tell me: is the sequence CUUAAGGUCUGGAUCUUCUGGGUUACCAAA at or over 0.3 in terms of pre-steady-state target cleavage rate?
Criterion not met

Please tell me: is the sequence CUAUUCCUCUGGAACUACUGGGUUUCCUAA at or over 0.3 in terms of pre-steady-state target cleavage rate?
Criterion met

Please tell me: is the sequence CAAUUCCUCUGGAACUACUGGGUUUCCUAA at or over 0.3 in terms of pre-steady-state target cleavage rate?
Criterion met

Please tell me: is the sequence CAAUUCCUCUGGUUCUACUGGGUAACCUAA at or over 0.3 in terms of pre-steady-state target cleavage rate?
Criterion not met

Please tell me: is the sequence GAAUUCCUCUGGUUCUACUGGGUUUCCUAA at or over 0.3 in terms of pre-steady-state target cleavage rate?
Criterion met

Please tell me: is the sequence CUAAACCUCUGGAUCUACUGGGUUACCUAA at or over 0.3 in terms of pre-steady-state target cleavage rate?
Criterion not met
